Listed here are molecules together with their documented Cmax.
Protocol Notes: Cmax in CD-1 mouse at 50 mg/kg, po measured after 24 hrs by LC-MS/MS analysis
Type: ADME, organism-based
Particulars: in vivo
Reply numerically in ng/mL, unit not repeated.

>>> recorded_number("COc1cccc2c(N3CCC(CCP(=O)(O)O)CC3)ncnc12")
67.2

Here's the next entry for you.
Cmax measured on COc1cccc2c(N3CCC(CC(CNC(=O)[C@@H](N)C(C)(C)C)P(=O)(O)O)CC3)ncnc12 (some centres not stated) = 1680

###

Experimental Target: Ectonucleotide pyrophosphatase/phosphodiesterase family member 1 (Mus musculus)
Sequence (P06802 whole entry): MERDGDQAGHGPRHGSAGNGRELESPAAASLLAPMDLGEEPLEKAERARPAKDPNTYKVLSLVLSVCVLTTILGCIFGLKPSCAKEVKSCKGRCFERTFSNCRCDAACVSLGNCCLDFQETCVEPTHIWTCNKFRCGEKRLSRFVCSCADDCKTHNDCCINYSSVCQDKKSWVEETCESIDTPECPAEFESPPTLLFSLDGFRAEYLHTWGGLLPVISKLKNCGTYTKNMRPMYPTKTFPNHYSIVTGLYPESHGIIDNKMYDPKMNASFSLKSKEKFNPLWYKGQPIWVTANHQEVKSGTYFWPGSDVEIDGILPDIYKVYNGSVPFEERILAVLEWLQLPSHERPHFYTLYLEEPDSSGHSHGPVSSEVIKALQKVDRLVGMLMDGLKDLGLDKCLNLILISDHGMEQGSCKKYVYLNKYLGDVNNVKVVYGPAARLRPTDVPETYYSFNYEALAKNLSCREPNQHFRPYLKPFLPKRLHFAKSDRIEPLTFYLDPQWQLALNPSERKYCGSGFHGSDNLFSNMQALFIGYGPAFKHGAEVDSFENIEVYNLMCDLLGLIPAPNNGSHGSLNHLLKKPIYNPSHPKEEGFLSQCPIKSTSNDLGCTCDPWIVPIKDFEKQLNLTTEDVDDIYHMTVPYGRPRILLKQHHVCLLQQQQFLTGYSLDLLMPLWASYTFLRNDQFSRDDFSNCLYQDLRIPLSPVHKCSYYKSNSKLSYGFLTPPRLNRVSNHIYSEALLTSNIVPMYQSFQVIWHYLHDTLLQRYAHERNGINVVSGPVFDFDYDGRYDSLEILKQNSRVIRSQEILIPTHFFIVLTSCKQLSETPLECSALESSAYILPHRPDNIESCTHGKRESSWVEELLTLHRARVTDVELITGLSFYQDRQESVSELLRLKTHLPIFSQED
Protocol Notes: Inhibition of ENPP1 in mouse plasma using [32P]cGAMP as substrate
Measured Metric: pKi
pKi is a log-scale quantity: -log10 of the concentration expressed in molar.

Lookup result for `COc1cccc2c(N3CCC(CCP(=O)(O)O)CC3)ncnc12` ; measured pKi: 8.40
